Assay: BSK_3C_uPAR: BioMAP Diversity Plus: 3C Assay for Urokinase-type plasminogen activator receptor (uPAR) Biomarker Activity (AID 2282998)
Conditions: BioMAP 3C HUVEC, uPAR biomarker ELISA; actives raise or lower the signal
Calls of active or inactive are those of the source. How the source made its calls: active means hit-call score of the fitted dose curve at least 0.9, where 1 is the maximum; inactive means score below 0.9.
Observation type: AC50

Field: example entries. Status: answers known.
CCCCCCCCCCCCCN1CC(C)OC(C)C1 (stereo unspecified); inactive
[Cl-].[Cl-].[Hg+2]; 34.1 µM (active)
COc1cc(C=O)cc2c1[C@H](COC(N)=O)[C@]1(OC(C)=O)ON2C[C@H]2[C@@H]1N2C(C)=O; 11.6 µM (active)
CC(C)COC(=O)c1ccccc1C(=O)OCC(C)C; inactive
CCCCCCCCOC(=O)c1ccc(C(=O)OCCCCCCCC)c(C(=O)OCCCCCCCC)c1; inactive

The recorded AC50 for entry `Cc1ccc(N=C=O)cc1N=C=O` equals inactive
